# System: RXF 393 renal
# METHOD_SUMMARY: NCI tumour cell line growth inhibition, 48 h
OUTCOME_MEASURE: TGI

Below, each entry is followed by its recorded TGI result.
1. O=C1/C(=C/c2cccc([N+](=O)[O-])c2)N=C(c2ccccc2)N1c1ccc2c(c1)Sc1cc(N3C(=O)/C(=C/c4cccc([N+](=O)[O-])c4)N=C3c3ccccc3)ccc1N2
62.2 µM
2. O=C(CCc1cc(-c2ccco2)n(-c2ccc([N+](=O)[O-])cc2[N+](=O)[O-])n1)Nc1ccccc1
> 100 µM
3. CC1(C)OC([C@H](O)CO)C([C@H]2NCCS2)O1 (stereo partly drawn)
> 100 µM
4. O=C1C(c2c(O)[nH]c3ccc(S(=O)(=O)N(CCO)CCO)cc23)=Nc2ccccc21
6.53 µM
5. C[C@]12CCC(=O)C=C1CC[C@@H]1[C@@H]2CC[C@]2(C)C(=O)/C(=C\c3ccccc3)C[C@@H]12
> 73.7 µM

Lab note: each molecule below needs its TGI filled in.
1. CCNCCNc1cc(C2CCCC2)c(C#N)c2nc3ccccc3n12
2. O=C(O)CCCC#CCCCC(=O)O
3. Cc1ccc(C(=O)Nc2ccc(CP(=O)(O)O)cc2)cc1NC(=O)Nc1cc(C(=O)Nc2ccc(CP(=O)(O)O)cc2)ccc1C
4. Clc1cccc(Cl)c1C1SCc2nc3ncccc3n21 (stereo not drawn)

["4 µM", "> 100 µM", "> 100 µM", "> 100 µM"]

The following molecules each have a reported value; give each one's TGI.
1. OCCCNC(=S)Nc1ccc(-c2nc3ccccc3s2)cc1
2. Nc1nc(Cl)nc2c1ncn2C1CCC(CO)O1 (stereo not drawn)
3. O=C1/C(=C/c2cccc3ccccc23)Cc2ccccc21

52.4 µM
> 100 µM
39.2 µM

Can you give me TGI for all of these, one by one?
1. Nc1nn(C(=O)Nc2ccc(Cc3ccccc3)cc2)c2ccccc12
2. COc1ccc(/C=C2\CCCC3=C2N=C2SC=NN2C3c2ccc(OC)c(OC)c2)cc1OC (stereo not drawn)
3. O=C1/C(=c2\c3ccccc3n3c(=O)c4ccccc4nc23)Nc2ccccc21
4. O=C1CSc2ccncc2N1
5. O=C(NO)c1ccc(OCc2ccccc2)cc1
6. O=C1C=CC(=O)N1CCCCCCCCCCN1C(=O)C=CC1=O
7. CC(C)(C)C1CCN(C(=O)c2ccccc2)CC1

1. 58.2 µM
2. 24.3 µM
3. > 100 µM
4. > 100 µM
5. > 100 µM
6. 11.3 µM
7. > 100 µM

Please state TGI for every molecule in the list that follows.
1. C(#Cc1ccccc1C#Cc1ccccn1)c1ccc(OCCCCCCOc2ccc(C#Cc3ccccc3C#Cc3ccccn3)cc2)cc1
2. CCOC(=O)C1C(=O)CC(C)(O)C(C(=O)OCC)C1c1ccc(OC)cc1 (stereo not drawn)
3. CCOC(=O)c1cc(C2(OC)CCN(Cc3ccccc3)C2=O)c(-c2cc(C)no2)[nH]1 (stereo not drawn)
4. O=C(Nc1cccc2ccccc12)c1cc2ccccc2cc1O
5. CNC(=S)N/N=C(/C)CCC/C(C)=N/NC(=S)NC
6. CCC(C)(C)c1ccc(Oc2cccc(C(=O)O)c2)cc1
7. Cc1ccc(S(=O)(=O)N2C/C(=C\c3cc(F)cc(F)c3)C(=O)/C(=C/c3cc(F)cc(F)c3)C2)cc1
8. CC(=O)OCC1OC(OC2CC3C(C)(C)C(=O)CC[C@]3(C)C3CC[C@]45C[C@]4(CCC5[C@@H](C)CC(O)C(O)C(C)(C)O)[C@]23C)C(O)C(O)C1O (stereo partly drawn)

1: 13.6 µM; 2: > 100 µM; 3: > 100 µM; 4: 6.68 µM; 5: > 50.3 µM; 6: > 100 µM; 7: 1.82 µM; 8: 21.9 µM

Report TGI for each item below.
1. Clc1ccc(N=Cc2cc3cc(Br)ccc3nc2Cl)cc1
2. CN(C)CCOc1cccc(NC2=C(Cl)C(=O)C(Nc3cccc(OCCN(C)C)c3)=C(Cl)C2=O)c1

1. > 50 µM
2. 1.21 µM

Each of the following entries comes with a recorded value; kindly state TGI for each.
1. Cn1c2ccccc2c(=S)c2cc(NC(=O)CCCCC(=O)Nc3ccc4c(c3)c(=S)c3ccccc3n4C)ccc21
2. CC(C)(C)C1=NN=C2c3ccccc3C(=O)C21 (stereo not drawn)
3. O=CN/C=C/c1ccccc1O
4. CC(C)(Cc1ccccc1)Cc1cc(O)ccc1O
5. CC(=O)OCC(OC(C)=O)C(OC(C)=O)C(OC(C)=O)C(/C=N\Nc1nc2ccccc2c(=O)[nH]1)OC(C)=O (stereo not drawn)

1: > 100 µM; 2: > 100 µM; 3: > 100 µM; 4: 28.9 µM; 5: > 100 µM

Please give TGI, item by item, for the list that follows.
1. CC1=NN(c2ccccc2)C(=O)C1C(=O)C(=O)Nc1ccc(C)cc1C (stereo not drawn)
2. Cc1ccc(OCCn2cc(Nc3ccccc3)c(=O)[nH]c2=O)cc1
3. O=c1nc2[nH]nc(-c3ccccc3)c2n[nH]1
4. O=C1c2ccc3ccccc3c2CCC1N1CCCCC1 (stereo not drawn)

1. > 100 µM
2. > 100 µM
3. > 100 µM
4. 46.5 µM

Taken from PubChem BioAssay (NCI).
